Recorded optical density for the following binders
Target: T1, biotinylated goat anti-human kappa light chain
T1 construct: positive control of the ELISA
Assay: ELISA, positive control; also: test concentration or dose not given here
Procedure: The binding of ACVR2A-specific monoclonal antibodies to human ACVR2A, mouse ACVR2A, biotinylated goat anti-human kappa light chain (positive control) and human Fc (negative control) were determined by ELISA.
measured.attribute: optical density (OD)

binder: 376_D08 (antibody, V domains shown, Group II) VH: EVQLLESGGGLVQPGGSLRLSCAASGFTFDSYGMNWVRQAPGKGLEWVANINYNSGYKSYADSVKGRFTISRDNSKNTLYLQMNSLRAEDTAVYYCARAATWHDTALDYWGQGTLVTVSS VL: DIQMTQSPSSLSASVGDRVTITCRASQSILTYLNWYQQKPGKAPKLVIYYANNRPSGVPSRFSGSGSGTDFTLTISSLQPEDFATYYCQQSYSNPLTFGGGTKVEIK
measurement: 3.47
--
binder: 370_G04 (antibody, V domains shown, Group I) VH: EVQLLESGGGLVQPGGSLRLSCAASGFTFSSYGMHWVRQAPGKGLEWVSGINYNGGYTGYADSVKGRFTISRDNSKNTLYLQMNSLRAEDTAVYYCARAANWHDTALDYWGQGTLVTVSS VL: DIQMTQSPSSLSASVGDRVTITCRASQSILSYVNWYQQKPGKAPKLLIYAATSRASGVPSRFSGSGSGTDFTLTISSLQPEDFATYYCQQSYSTPLTFGGGTKVEIK
measurement: 3.51
